# Test system: Klebsiella pneumoniae
# Protocol Details: Antibacterial activity against Klebsiella pneumoniae; also: test concentration or dose not given here
# Format: functional
Result Type: inhibition zone (IZ) (mm)

{"Item Smiles": "CCSc1ccc(OCc2nnc3sc(-c4cccc(Cl)c4Cl)nn23)cc1", "Result Type": "inhibition zone (IZ)", "Unit Annotation": "mm", "Value Prefix": "<", "Data Value": 10}
{"Item Smiles": "CSc1ccc(OCc2nnc3n2N=C(c2ccc(O)c(C(N)=O)c2)CS3)cc1", "Result Type": "inhibition zone (IZ)", "Unit Annotation": "mm", "Value Prefix": "<", "Data Value": 10}
{"Item Smiles": "CS(=O)(=O)c1ccc(OCc2nnc3n2N=C(c2ccc(O)c(C(N)=O)c2)CS3)cc1", "Result Type": "inhibition zone (IZ)", "Unit Annotation": "mm", "Value Prefix": "=", "Data Value": 11}
{"Item Smiles": "CSc1ccc(OCc2nnc3sc(-c4ccc(N)cc4)nn23)cc1", "Result Type": "inhibition zone (IZ)", "Unit Annotation": "mm", "Value Prefix": "=", "Data Value": 16}
{"Item Smiles": "CCSc1ccc(OCc2nnc3n2N=C(c2ccc(Cl)cc2Cl)CS3)cc1", "Result Type": "inhibition zone (IZ)", "Unit Annotation": "mm", "Value Prefix": "<", "Data Value": 10}
{"Item Smiles": "CSc1ccc(OCc2nnc3sc(-c4ccccc4Cl)nn23)cc1", "Result Type": "inhibition zone (IZ)", "Unit Annotation": "mm", "Value Prefix": "<", "Data Value": 10}
{"Item Smiles": "CS(=O)(=O)c1ccc(OCc2nnc3sc(-c4ccccc4Cl)nn23)cc1", "Result Type": "inhibition zone (IZ)", "Unit Annotation": "mm", "Value Prefix": "=", "Data Value": 11}

###

Quick reference: inhibition zone (IZ) of the listed items.
# System: Klebsiella pneumoniae
# Protocol Details: Antibacterial activity against Klebsiella pneumoniae; also: test concentration or dose not given here
# Format: functional
Result Type: inhibition zone (IZ)

{"Item Smiles": "COc1ccc(-c2nn3c(COc4ccc(SC)cc4)nnc3s2)cc1", "Data Value": "16 mm"}
{"Item Smiles": "CS(=O)(=O)c1ccc(OCc2nnc3sc(Cc4ccccc4)nn23)cc1", "Data Value": "11 mm"}
{"Item Smiles": "CCSc1ccc(OCc2nnc3n2N=C(c2ccc(Cl)cc2)CS3)cc1", "Data Value": "<10 mm"}
{"Item Smiles": "CSc1ccc(OCc2nnc3n2N=C(c2ccc(Cl)cc2Cl)CS3)cc1", "Data Value": "16 mm"}
{"Item Smiles": "CCSc1ccc(OCc2nnc3sc(-c4ccc(C)cc4)nn23)cc1", "Data Value": "16 mm"}
{"Item Smiles": "CSc1ccc(OCc2nnc3sc(Cc4ccccc4)nn23)cc1", "Data Value": "16 mm"}

###

# Test system: Klebsiella pneumoniae
# Protocol Details: Antibacterial activity against Klebsiella pneumoniae; also: test concentration or dose not given here
# Assay type: functional
Result Type: inhibition zone (IZ)

{"Item Smiles": "CCSc1ccc(OCc2nnc3sc(-c4ccc(OC)cc4)nn23)cc1", "Data Value": "<10 mm"}
{"Item Smiles": "CCSc1ccc(OCc2nnc3sc(-c4ccccc4Cl)nn23)cc1", "Data Value": "<10 mm"}
{"Item Smiles": "CS(=O)(=O)c1ccc(OCc2nnc3n2N=C(c2ccc(Cl)cc2)CS3)cc1", "Data Value": "<10 mm"}

###

Quick reference: inhibition zone (IZ) of the listed items.
# Test system: Talaromyces marneffei
# Protocol Details: Antifungal activity against Penicillium marneffei; also: test concentration or dose not given here
# Type: functional

{"Item Smiles": "CCSc1ccc(OCc2nnc3sc(-c4cccc(Cl)c4Cl)nn23)cc1", "inhibition zone (IZ)": "<10 mm"}
{"Item Smiles": "CCSc1ccc(OCc2nnc3sc(-c4ccc(OC)cc4)nn23)cc1", "inhibition zone (IZ)": "<10 mm"}
{"Item Smiles": "CCSc1ccc(OCc2nnc3n2N=C(c2ccc(Cl)cc2)CS3)cc1", "inhibition zone (IZ)": "<10 mm"}
